- Tested on: Lolium perenne (LOLPE)
- PROTOCOL DESCRIPTION: Glasshouse assay for herbicidal activity (pre- and post-emergence), percentage phytotoxicity
- Type: in vivo
- MEASUREMENT CONTEXT: Lolium perenne, pre-emergence, 480 h, Rate 250 g/ha; pre-emergence; visual assessment 20 DAA; 100%=total damage, 0%=no damage; read-out: Pre-emergence herbicidal activity (percentage phytotoxicity) LOLPE PRE
MEASURED ATTRIBUTE: pest or weed control at 250 g/ha (%)

Cc1cc(-c2ccc(Cl)cn2)cc(C)c1C1C(=O)CC(CC(=O)NCc2cccc(F)c2)C1=O (stereo not shown) | 100
Cc1cc(-c2ccc(Cl)cn2)cc(C)c1C1C(=O)CC(CC(=O)NCc2cccc(Br)c2)C1=O (stereo not shown) | 90
Cc1ccc(CNC(=O)CC2CC(=O)C(c3c(C)cc(-c4ccc(F)cn4)cc3C)C2=O)cc1 (stereo not shown) | 70
CCOCOC1=C(c2c(C)cc(-c3ncc(Cl)cn3)cc2C)C(=O)C(CC(=O)NC(C)(C)C)C1 (stereo not shown) | 100
Cc1cc(C)c(C2=C(OC(=O)C(C)(C)C)CC(CC(=O)N(C(=O)C(C)(C)C)C3(C)COC3)C2=O)c(C)c1 (stereo not shown) | 70
Cc1ccc(CNC(=O)CC2CC(=O)C(c3c(C)cc(-c4ccc(Cl)cn4)cc3C)C2=O)cc1 (stereo not shown) | 80
CCN(C)C(=O)CC1CC(=O)C(c2c(C)cc(-c3ccc(Cl)cn3)cc2C)C1=O (stereo not shown) | 100

---

Let's look at some molecules and their measured pest or weed control at 250 g/ha.
- Test system: Lolium perenne (LOLPE)
- PROTOCOL DESCRIPTION: Glasshouse assay for herbicidal activity (pre- and post-emergence), percentage phytotoxicity
- Assay type: in vivo
- MEASUREMENT CONTEXT: Lolium perenne, post-emergence, 360 h, POST-emergence, rate 250 g/ha, visual score 15 DAA (100%=total damage, 0%=no damage); read-out: Post-emergence herbicidal activity (percentage phytotoxicity) LOLPE POST
- Description: Test—Glasshouse Assay for Herbicidal Activity Seeds of a variety of monocotyledonous and dicotyledonous test plants are sown in standard soil in pots. The plants are cultivated for one day (for pre-emergence (PRE)) or for about 12 days (for post-emergence (POST)) under controlled conditions in a glasshouse (warm climate species at 24/18° C., cool climate species at 20/16° C., both at day/night; 16 hours light; 65% humidity). […]
MEASURED ATTRIBUTE: pest or weed control at 250 g/ha (%)

C=C(F)CNC(=O)CC1CC(=O)C(c2c(C)cc(-c3ncc(F)cn3)cc2C)C1=O (stereo not shown) | 100
C=CC(C)NC(=O)CC1CC(=O)C(c2c(C)cc(-c3ncc(Cl)cc3F)cc2C)C1=O (stereo not shown) | 100
C/C=C/c1cc(C)c(C2C(=O)CC(CC(N)=O)C2=O)c(C)c1 (stereo not shown) | 80
Cc1cc(-n2cc(Cl)cn2)cc(C)c1C1C(=O)CC(CC(=O)NCc2cccc(Br)c2)C1=O (stereo not shown) | 80

---

As shown below, each of these compounds has a reported pest or weed control at 250 g/ha value.
- Tested on: Alopecurus myosuroides (ALOMY)
- PROTOCOL DESCRIPTION: Glasshouse assay for herbicidal activity (pre- and post-emergence), percentage phytotoxicity
- Format: in vivo
- MEASUREMENT CONTEXT: Alopecurus myosuroides, pre-emergence, 480 h, 250 g/ha; pre-emergence; 20 DAA; visual assessment (100%=total damage, 0%=no damage); read-out: Pre-emergence herbicidal activity (percentage phytotoxicity) ALOMY PRE
MEASURED ATTRIBUTE: pest or weed control at 250 g/ha (%)

Cc1cc(C)c(C2C(=O)CC(CC(=O)NCC(F)(F)F)C2=O)c(C)c1 (stereo not shown) | 70
C/C=C/CNC(=O)CC1CC(=O)C(c2c(C)cc(-c3ncc(Cl)cc3F)cc2C)C1=O (stereo not shown) | 90
Cc1cc(-c2ncc(F)cc2F)cc(C)c1C1C(=O)CC(CC(=O)N2CCOCC2)C1=O (stereo not shown) | 90
Cc1cc(-c2ncc(F)cc2F)cc(C)c1C1C(=O)CC(CC(=O)NCc2ccc(Br)cc2)C1=O (stereo not shown) | 80
